pIC50: recorded values
# target_system: HLA-DRB1*0401 (Homo sapiens (Human), UniProt P01903+P01911, A100K/A169T/DEL228-266/F76Y/I96L/K127E/L162R/M171V/N62H/P40V/Q125Y/R42H/S133A/S149N/S66Y/V115G/V209L/W38E)
# assay_text: HLA-DR4 HTRF assay
# experimental_parameters: inhibition of loading of Alexa Fluor 647-labeled Cit-CII peptide onto HLA-DR4 (CLIP cleaved)
pIC50: −log10 of the molar value.

[
  {
    "compound": "CC[C@H]1CC(=O)c2ccc(OCc3ccncc3OC)cc2O1 (single isomer, unassigned) [Example 119b]",
    "pIC50": 6.16
  },
  {
    "compound": "NC(=O)c1ccc([C@H](Oc2ccc3c(c2)OCCC3=O)c2ccc(Cl)cc2)cc1 (single isomer, unassigned) [Example 30b]",
    "pIC50": 5.92
  },
  {
    "compound": "C[C@H]1CC(=O)c2ccc(O[C@@H](c3ccncc3)c3ccc(C(N)=O)cc3)cc2O1 (single isomer, unassigned) [Example 39c]",
    "pIC50": 6.00
  }
]

---

# target_system: HLA-DRB1*0401 (Homo sapiens (Human), UniProt P01903+P01911, A100K/A169T/DEL228-266/F76Y/I96L/K127E/L162R/M171V/N62H/P40V/Q125Y/R42H/S133A/S149N/S66Y/V115G/V209L/W38E)
# assay_text: HLA-DR4 HTRF assay
# experimental_parameters: inhibition of loading of Alexa Fluor 647-labeled Cit-CII peptide onto HLA-DR4 (CLIP cleaved)
pIC50: −log10 of the molar value.
pIC50: recorded values

[
  {
    "molecule": "O=C1CCOc2cc(OC(c3ccncc3)c3cccc(F)c3)ccc21 (racemic)",
    "pIC50": 6.00
  },
  {
    "molecule": "C[C@H]1CC(=O)c2ccc(O[C@H](c3ccncc3)c3ccc(C(N)=O)cc3)cc2O1 (single isomer, unassigned) [Example 39d]",
    "pIC50": 6.00
  },
  {
    "molecule": "NC(=O)c1cccc([C@@H](Oc2ccc3c(c2)OCCC3=O)c2ccncc2)c1 (single isomer, unassigned)",
    "pIC50": 6.04
  },
  {
    "molecule": "Cc1c(O[C@@H](c2ccc(Cl)cc2)c2ccc(C(N)=O)cn2)ccc2c1OCCC2=O (single isomer, unassigned) [Example 63b]",
    "pIC50": 5.82
  },
  {
    "molecule": "CC(C)c1c(O[C@@H](c2ccc(C(N)=O)cc2)c2ccc(C(=O)O)cc2)ccc2c1OCCC2=O (single isomer, unassigned) [Example 108b]",
    "pIC50": 6.09
  },
  {
    "molecule": "Cc1cc([C@@H](Oc2ccc3c(c2C(C)C)OCCC3=O)c2ccc(C(N)=O)cc2)cc(C)n1 (single isomer, unassigned) [Example 106b]",
    "pIC50": 6.13
  }
]

Numbers sourced from patent US12516038B2.
